Target: EHMT2 (Homo sapiens)
Construct: host or cells: MDA-MB-231
Sequence (Q96KQ7 1-1210): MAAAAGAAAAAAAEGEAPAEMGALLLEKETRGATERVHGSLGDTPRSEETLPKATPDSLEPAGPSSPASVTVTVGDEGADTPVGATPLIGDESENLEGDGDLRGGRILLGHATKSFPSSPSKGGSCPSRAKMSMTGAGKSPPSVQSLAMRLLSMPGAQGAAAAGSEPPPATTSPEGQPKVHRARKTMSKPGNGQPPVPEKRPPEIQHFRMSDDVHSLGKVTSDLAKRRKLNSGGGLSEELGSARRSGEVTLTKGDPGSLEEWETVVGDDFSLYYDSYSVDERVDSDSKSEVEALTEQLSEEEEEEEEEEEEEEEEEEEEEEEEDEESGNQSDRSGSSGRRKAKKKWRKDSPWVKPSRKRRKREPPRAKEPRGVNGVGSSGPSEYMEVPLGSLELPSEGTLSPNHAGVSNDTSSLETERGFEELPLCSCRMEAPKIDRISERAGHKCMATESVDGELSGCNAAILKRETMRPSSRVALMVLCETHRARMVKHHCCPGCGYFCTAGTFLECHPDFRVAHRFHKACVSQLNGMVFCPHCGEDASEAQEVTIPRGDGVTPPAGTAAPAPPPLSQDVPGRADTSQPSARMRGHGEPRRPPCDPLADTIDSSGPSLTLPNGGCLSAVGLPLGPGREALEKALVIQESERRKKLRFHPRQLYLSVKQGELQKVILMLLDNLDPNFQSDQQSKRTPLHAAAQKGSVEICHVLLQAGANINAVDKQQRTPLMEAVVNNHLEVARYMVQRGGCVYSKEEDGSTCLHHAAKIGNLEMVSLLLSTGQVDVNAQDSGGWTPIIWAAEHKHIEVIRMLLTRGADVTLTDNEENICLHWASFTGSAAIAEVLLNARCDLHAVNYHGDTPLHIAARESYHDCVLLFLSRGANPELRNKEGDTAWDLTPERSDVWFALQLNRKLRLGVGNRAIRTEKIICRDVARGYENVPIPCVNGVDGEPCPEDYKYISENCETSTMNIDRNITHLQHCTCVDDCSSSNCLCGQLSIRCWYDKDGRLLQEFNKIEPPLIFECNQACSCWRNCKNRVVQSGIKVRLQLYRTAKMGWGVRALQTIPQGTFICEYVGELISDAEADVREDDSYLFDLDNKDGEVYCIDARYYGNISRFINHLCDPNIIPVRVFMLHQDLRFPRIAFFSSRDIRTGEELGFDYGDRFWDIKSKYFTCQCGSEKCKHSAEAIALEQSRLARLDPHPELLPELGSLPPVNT
Test: MDA-MB-231 H3K9me2 in-cell Western assay (EHMT2 ICW)
Format: cell-based
Conditions: Table II; MDA-MB-231 H3K9me2 in-cell Western; read-out: EHMT2 ICW (IC50 μM)
Observed property: IC50

INSERT INTO results (compound, tested_target, reported) VALUES
  ('COc1ccc(Nc2nccc(NCCc3cccnc3)n2)cc1OCCCN1CCCC1 [Compound 37]', 'EHMT2 (Homo sapiens)', '0.1 to 1 µM'),
  ('COc1ccc(Nc2nccc(Nc3cccc(F)c3)n2)cc1OCCCN1CCCC1 [Compound 225]', 'EHMT2 (Homo sapiens)', '1 to 10 µM');

What the record says about COc1ccc(Nc2nccc(NCC(=O)N(C)c3ccccc3)n2)cc1OCCCN1CCCC1 [Compound 52] : IC50 is 1 to 10 µM

Input COc1ccc(Nc2nccc(N3CCC(O)CC3)n2)cc1OCCCN1CCCC1 [Compound 148] . Output IC50: > 10 µM

// IC50 lookup, compound = COc1ccc(Nc2nccc(NCCc3ccccn3)n2)cc1OCCCN1CCCC1 [Compound 167] , result: 0.1 to 1 µM

Entry COc1ccc(Nc2nccc(N3CCc4cn[nH]c4C3)n2)cc1OCCCN1CCCC1 [Compound 155] , IC50 reported as > 10 µM

// COc1ccc(Nc2nccc(N(C)Cc3ccncc3)n2)cc1OCCCN1CCCC1 [Compound 56] : IC50 value = 1 to 10 µM

Lab note: COc1ccc(Nc2nccc(N3CCNc4ccccc4C3)n2)cc1OCCCN1CCCC1 [Compound 154] gave IC50 of > 10 µM

Recorded IC50 (compound COc1ccc(Nc2nccc(NCC3CCOCC3)n2)cc1OCCN1CCOCC1 [Compound 204] ): > 10 µM

Item: COc1ccc(Nc2nccc(NCC3(O)CCCCC3)n2)cc1OCCCN1CCCC1 [Compound 45] | IC50: 1 to 10 µM

The recorded IC50 for COc1ccc(Nc2nccc(N3CCCN(C(C)=O)CC3)n2)cc1OCCCN1CCCC1 [Compound 138] is > 10 µM

Form field IC50, entry COc1ccc(Nc2nccc(NC3CCOCC3)n2)cc1OCCCN1CCCC1 [Compound 5] : 0.1 to 1 µM

Reported IC50 for COc1ccc(Nc2nccc(NC3CCS(=O)(=O)CC3)n2)cc1OCCCN1CCCC1 [Compound 152] was > 10 µM

// field: IC50; key: COc1ccc(Nc2nccc(NCC3CCN(C)CC3)n2)cc1OCCCNc1ccccc1 [Compound 159] ; value = 1 to 10 µM

Sure, the documented IC50 for COc1ccc(Nc2nccc(NCC3CCNCC3)n2)cc1CCNCC1CCCC1 [Compound 17] is > 10 µM

COCCCN(C)c1ccnc(Nc2ccc(OC)c(OCCCN3CCCC3)c2)n1 [Compound 143] yielded IC50 of > 10 µM

// field: IC50; key: CC(=O)N1CCC(CNc2ccnc(Nc3ccc(C)c(OCCCN4CCCC4)c3)n2)CC1 [Compound 145] ; value = > 10 µM

Entry COc1ccc(Nc2nccc(C)n2)cc1OCCCN1CCCC1 [Compound 174] ; IC50 = > 10 µM
